Data provenance: paper PMC6299220

target: KasA (Mycobacterium tuberculosis, UniProt P9WQD9); assay: Microscale thermophoresis (MST) binding assay; conditions: 49.5 nM labeled KasA
Sequence (P9WQD9 whole entry): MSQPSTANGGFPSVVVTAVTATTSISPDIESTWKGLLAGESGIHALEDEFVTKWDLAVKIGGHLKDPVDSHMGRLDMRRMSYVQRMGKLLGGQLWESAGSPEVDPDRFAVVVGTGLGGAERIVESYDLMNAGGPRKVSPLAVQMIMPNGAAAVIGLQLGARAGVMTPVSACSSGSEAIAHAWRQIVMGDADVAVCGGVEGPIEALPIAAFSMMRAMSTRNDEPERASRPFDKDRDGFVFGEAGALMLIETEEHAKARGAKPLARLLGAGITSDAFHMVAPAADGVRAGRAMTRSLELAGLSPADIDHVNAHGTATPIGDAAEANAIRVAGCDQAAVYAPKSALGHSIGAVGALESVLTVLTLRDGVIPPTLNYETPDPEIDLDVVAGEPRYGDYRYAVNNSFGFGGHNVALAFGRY
Each item that follows carries a reported pEC50.
For clarity, pEC50 is expressed as the negative log10 of concentration in mol/L.

compound: CCCCS(=O)(=O)Nc1ccc2cnn(C)c2c1
pEC50: 6.88

Now for another entry.
IN: Please give the documented pEC50 of CCCCS(=O)(=O)Nc1ccc2cn[nH]c2c1 [5a-2, N-(1H-Indazol-6-yl)butane-1-sulfonamide]
OUT: 5.76

---

biological target: hERG (Homo sapiens)
Sequence (Q12809 whole entry): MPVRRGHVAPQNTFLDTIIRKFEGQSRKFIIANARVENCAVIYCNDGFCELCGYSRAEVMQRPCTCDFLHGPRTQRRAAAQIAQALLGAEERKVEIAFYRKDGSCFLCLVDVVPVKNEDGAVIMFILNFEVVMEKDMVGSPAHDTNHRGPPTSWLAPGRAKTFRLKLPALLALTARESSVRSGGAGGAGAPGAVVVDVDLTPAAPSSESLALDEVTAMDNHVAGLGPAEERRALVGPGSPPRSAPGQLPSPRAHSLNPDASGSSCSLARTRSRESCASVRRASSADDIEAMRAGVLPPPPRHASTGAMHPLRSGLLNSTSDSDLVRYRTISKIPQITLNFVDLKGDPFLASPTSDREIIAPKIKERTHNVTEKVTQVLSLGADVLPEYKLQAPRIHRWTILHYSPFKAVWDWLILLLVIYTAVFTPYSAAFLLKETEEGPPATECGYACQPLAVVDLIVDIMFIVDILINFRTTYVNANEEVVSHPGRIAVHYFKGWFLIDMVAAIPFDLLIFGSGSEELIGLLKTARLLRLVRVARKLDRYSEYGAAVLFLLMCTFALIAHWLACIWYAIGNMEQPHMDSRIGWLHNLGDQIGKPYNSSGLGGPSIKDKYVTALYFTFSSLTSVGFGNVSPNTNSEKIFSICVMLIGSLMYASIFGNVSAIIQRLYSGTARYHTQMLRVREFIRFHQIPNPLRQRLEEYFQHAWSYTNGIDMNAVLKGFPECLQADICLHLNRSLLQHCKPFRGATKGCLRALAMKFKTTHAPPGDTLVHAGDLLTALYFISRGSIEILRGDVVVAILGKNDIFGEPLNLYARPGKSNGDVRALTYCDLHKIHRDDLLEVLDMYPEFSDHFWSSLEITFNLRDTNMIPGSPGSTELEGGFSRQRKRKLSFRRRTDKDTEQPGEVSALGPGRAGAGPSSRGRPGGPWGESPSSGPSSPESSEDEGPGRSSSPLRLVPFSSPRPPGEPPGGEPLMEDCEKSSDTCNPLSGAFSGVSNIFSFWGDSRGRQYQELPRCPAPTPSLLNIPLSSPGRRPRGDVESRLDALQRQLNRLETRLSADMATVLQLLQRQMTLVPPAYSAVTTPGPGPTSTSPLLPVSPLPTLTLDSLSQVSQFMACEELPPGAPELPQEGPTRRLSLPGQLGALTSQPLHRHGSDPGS
pIC50: −log10 of the molar value.
measured.endpoint: pIC50

IN: Please give the documented pIC50 of CCCCS(=O)(=O)Nc1ccc2cnn(C)c2c1 [DG167]
OUT: < 4.70

---

Each item that follows carries a reported half-life.
assay: in vitro; details: mouse, microsomes
Form entry: value (min) — number only.

smiles.entry: CCCCS(=O)(=O)Nc1ccc2cnn(C)c2c1
measured.endpoint: half-life
test.result: 10.1

Now for another entry.
IN: Please give the documented half-life of [2H]C([2H])([2H])n1ncc2ccc(NS(=O)(=O)CCCC)cc21
OUT: 16.8

---

target: CYP3A4 (Homo sapiens, UniProt P08684)
Sequence (P08684 whole entry): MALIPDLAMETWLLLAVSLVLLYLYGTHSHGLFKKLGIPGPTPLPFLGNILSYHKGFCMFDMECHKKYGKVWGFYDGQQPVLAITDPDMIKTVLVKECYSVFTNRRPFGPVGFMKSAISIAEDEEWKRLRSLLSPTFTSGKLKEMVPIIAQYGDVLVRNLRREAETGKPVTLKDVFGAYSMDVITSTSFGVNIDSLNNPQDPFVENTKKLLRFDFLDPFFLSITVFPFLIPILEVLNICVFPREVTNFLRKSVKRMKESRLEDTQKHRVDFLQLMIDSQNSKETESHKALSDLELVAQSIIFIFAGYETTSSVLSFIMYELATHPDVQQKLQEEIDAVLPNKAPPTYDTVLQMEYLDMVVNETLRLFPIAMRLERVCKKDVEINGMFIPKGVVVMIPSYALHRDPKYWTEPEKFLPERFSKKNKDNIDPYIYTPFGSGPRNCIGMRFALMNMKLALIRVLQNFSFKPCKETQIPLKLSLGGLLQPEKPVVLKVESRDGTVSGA
measured.endpoint: IC50

IN: Write down the reported IC50 (system: CYP3A4 (Homo sapiens, UniProt P08684)) of CCCCS(=O)(=O)Nc1ccc2cnn(C)c2c1 [DG167]
OUT: > 50 µM

---

Each item that follows carries a reported solubility kinetic.
assay: physchem; conditions: pH 7.4, aqueous buffer, kinetic from dmso stock
Form entry: value (µM) — number only.

Some solved entries appear below for comparison.
compound: CCC(=O)Nc1ccc2cnn(C)c2c1 [5c-1, N-(1-methyl-1H-indazol-6-yl)propionamide]
result.unit: µM
solubility kinetic: 472
//
compound: CCCCS(=O)(=O)Nc1ccc2cnn(Cc3ccccc3)c2c1
result.unit: µM
solubility kinetic: 33.8

Now for another entry.
IN: Please give the documented solubility kinetic of CCCCS(=O)(=O)Nc1ccc2cnn(C)c2c1
OUT: 324

---

Each item that follows carries a reported solubility kinetic.
experiment: physchem; conditions: pH 7.4, aqueous buffer, kinetic from dmso stock
Form entry: value (µM) — number only.

smiles.entry: CCCCS(=O)(=O)Nc1ccc2cnn(-c3ccccc3)c2c1
test.result: 33.7

IN: Please give the documented solubility kinetic of CCCCS(=O)(=O)Nc1ccc2cnn(CCC)c2c1
OUT: 130

IN: Please give the documented solubility kinetic of CCCCS(=O)(=O)Nc1ccc2cnn(CC)c2c1
OUT: 472

IN: Please give the documented solubility kinetic of CCCCNC(=S)Nc1ccc2cnn(C)c2c1
OUT: 131

---

molecular target: KasA (Mycobacterium tuberculosis)
measured.endpoint: pKd
For clarity, pKd is expressed as the negative log10 of concentration in mol/L.

IN: Write down the reported pKd (system: KasA (Mycobacterium tuberculosis)) of CCCCS(=O)(=O)Nc1ccc2[nH]nc(C)c2c1 [5g]
OUT: 7.33

---

assay: in vitro; details: mouse, microsomes, MLM stability t1/2 without NADPH, without NADPH
measured.endpoint: half-life

IN: Please give the documented half-life of CCCCS(=O)(=O)Nc1ccc2cnn(C)c2c1
OUT: > 5 h

---

test: in vitro; assay type: in vitro ADME; details: human, plasma
measured.endpoint: fraction unbound

IN: Please give the documented fraction unbound of CCCCS(=O)(=O)Nc1ccc2cnn(C)c2c1
OUT: 0.081

---

target: CYP2C9 (Homo sapiens)
Sequence (P11712 whole entry): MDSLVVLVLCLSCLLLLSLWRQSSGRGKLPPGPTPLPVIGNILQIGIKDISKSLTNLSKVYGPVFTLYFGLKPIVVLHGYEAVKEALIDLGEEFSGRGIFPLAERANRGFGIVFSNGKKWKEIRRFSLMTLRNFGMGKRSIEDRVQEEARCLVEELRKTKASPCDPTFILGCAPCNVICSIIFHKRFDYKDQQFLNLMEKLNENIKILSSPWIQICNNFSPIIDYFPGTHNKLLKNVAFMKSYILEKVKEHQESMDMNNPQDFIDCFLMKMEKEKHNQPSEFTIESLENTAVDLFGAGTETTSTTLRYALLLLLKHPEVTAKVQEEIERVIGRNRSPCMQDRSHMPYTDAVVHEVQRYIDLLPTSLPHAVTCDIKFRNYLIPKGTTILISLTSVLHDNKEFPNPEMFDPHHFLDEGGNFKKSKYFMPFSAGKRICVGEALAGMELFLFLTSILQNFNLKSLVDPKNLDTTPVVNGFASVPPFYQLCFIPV
measured.endpoint: IC50

IN: Please give the documented IC50 of CCCCS(=O)(=O)Nc1ccc2cnn(C)c2c1 [DG167]
OUT: > 50 µM

---

assay: in vivo; settings: female, BALB/c, mouse, in vivo, po, 25 mg/kg
measured.endpoint: AUC(0-t) (ng·h/mL)
Form entry: value (ng·h/mL) — number only.

IN: Please give the documented AUC(0-t) of CCCCS(=O)(=O)Nc1ccc2cnn(C)c2c1
OUT: 8080

---

molecular target: CYP2D6 (Homo sapiens)
Sequence (P10635 whole entry): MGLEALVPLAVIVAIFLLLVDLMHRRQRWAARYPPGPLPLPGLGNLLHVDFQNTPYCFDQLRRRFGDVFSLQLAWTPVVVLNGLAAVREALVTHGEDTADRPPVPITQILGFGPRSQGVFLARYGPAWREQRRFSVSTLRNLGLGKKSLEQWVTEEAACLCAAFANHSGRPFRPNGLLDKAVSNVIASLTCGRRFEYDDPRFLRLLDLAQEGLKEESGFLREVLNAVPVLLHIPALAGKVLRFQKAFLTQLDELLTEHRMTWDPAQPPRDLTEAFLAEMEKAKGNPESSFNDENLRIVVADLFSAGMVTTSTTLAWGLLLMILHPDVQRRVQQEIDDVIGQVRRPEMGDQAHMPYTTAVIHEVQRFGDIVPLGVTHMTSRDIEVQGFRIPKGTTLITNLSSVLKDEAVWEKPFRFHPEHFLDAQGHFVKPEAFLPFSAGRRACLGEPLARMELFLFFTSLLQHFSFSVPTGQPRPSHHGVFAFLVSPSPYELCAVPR
pIC50: −log10 of the molar value.
measured.endpoint: pIC50

IN: Write down the reported pIC50 (system: CYP2D6 (Homo sapiens)) of CCCCS(=O)(=O)Nc1ccc2cnn(C)c2c1
OUT: < 4.30

---

target: CYP1A2 (Homo sapiens, UniProt P05177)
Sequence (P05177 whole entry): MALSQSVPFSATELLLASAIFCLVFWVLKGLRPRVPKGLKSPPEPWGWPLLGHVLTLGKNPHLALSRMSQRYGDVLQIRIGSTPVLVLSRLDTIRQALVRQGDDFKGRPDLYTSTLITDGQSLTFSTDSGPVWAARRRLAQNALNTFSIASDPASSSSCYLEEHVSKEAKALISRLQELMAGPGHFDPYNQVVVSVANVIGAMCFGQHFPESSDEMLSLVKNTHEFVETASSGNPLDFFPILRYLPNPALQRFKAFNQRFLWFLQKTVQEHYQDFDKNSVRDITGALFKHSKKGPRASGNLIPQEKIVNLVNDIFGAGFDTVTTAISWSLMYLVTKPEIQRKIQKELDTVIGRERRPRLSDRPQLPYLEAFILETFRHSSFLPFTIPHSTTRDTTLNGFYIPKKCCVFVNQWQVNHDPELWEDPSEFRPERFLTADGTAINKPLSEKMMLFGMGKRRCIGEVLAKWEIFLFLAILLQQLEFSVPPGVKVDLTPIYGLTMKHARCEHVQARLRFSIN
measured.endpoint: IC50

IN: Write down the reported IC50 (system: CYP1A2 (Homo sapiens, UniProt P05177)) of CCCCS(=O)(=O)Nc1ccc2cnn(C)c2c1
OUT: > 50 µM

---

test: Mouse pharmacokinetic studies; details: female, BALB/c, plasma, po, 25 mg/kg
measured.endpoint: bioavailability
Write the numeric value and follow it with the unit.

IN: Please give the documented bioavailability of CCCCS(=O)(=O)Nc1ccc2cnn(C)c2c1
OUT: 92.3%

---

details: mouse, microsomes
Each item that follows carries a reported MLM stability clint.
Form entry: value (μl/mi/mg protein) — number only.

compound: CCCCS(=O)(=O)Nc1ccc2cnn(C)c2c1 [DG167]
result.unit: μl/mi/mg protein
MLM stability clint: 68.9

Now for another entry.
IN: Please give the documented MLM stability clint of CCCCS(=O)(=O)Nc1ccc2[nH]nc(C)c2c1 [5g]
OUT: 60.3

---

assay: physchem; conditions: pH 7.4, aqueous buffer, kinetic from dmso stock
measured.endpoint: solubility kinetic

compound: CCCCS(=O)(=O)Nc1ccc2cn[nH]c2c1 [5a-2, N-(1H-Indazol-6-yl)butane-1-sulfonamide]
solubility kinetic: > 600 µM

IN: Please give the documented solubility kinetic of CCCCS(=O)(=O)Nc1ccc2cnn(C(C)C)c2c1
OUT: > 500 µM

IN: Please give the documented solubility kinetic of CCOC(=O)Nc1ccc2cnn(C)c2c1
OUT: > 500 µM

IN: Please give the documented solubility kinetic of [2H]C([2H])([2H])n1ncc2ccc(NS(=O)(=O)CCCC)cc21
OUT: > 500 µM
